Values from patent US11453660B2

measurement target: Human Glucocorticoid Receptor (Homo sapiens, UniProt P04150)
Construct: endogenous in cells
Sequence (P04150 whole entry): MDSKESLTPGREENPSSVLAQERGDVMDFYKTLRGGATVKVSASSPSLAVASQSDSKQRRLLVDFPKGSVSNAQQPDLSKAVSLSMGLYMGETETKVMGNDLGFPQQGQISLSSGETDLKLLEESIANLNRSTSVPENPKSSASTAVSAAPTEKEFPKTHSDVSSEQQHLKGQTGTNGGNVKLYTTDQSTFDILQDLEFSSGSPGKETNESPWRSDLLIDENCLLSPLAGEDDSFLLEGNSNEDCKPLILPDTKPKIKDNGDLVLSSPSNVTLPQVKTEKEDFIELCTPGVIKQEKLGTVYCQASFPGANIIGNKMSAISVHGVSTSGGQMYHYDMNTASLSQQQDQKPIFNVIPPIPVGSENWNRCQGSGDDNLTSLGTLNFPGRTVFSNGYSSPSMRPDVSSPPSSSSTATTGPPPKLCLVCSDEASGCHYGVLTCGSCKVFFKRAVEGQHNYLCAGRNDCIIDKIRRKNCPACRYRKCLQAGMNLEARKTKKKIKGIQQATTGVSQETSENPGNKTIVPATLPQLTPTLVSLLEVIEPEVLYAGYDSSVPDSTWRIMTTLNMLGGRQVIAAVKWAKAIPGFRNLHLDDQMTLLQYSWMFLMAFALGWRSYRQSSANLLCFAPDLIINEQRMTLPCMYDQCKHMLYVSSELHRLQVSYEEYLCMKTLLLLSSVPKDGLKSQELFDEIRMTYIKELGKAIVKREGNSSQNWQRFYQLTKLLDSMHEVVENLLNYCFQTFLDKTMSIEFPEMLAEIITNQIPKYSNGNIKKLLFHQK
assay info: Competition Binding in IM-9 Human Glucocorticoid Receptor (GR IM-9)
protocol conditions: cytosol from IM-9 cell line, 1.5 nM [3H]-Dexamethasone, 4° C. for 6 hours
quantity measured: IC50

>  <compound>
CC(=O)C1=C(C)NC(C2CC2)=C(C(=O)OCc2ccncc2)C1c1csc2ncccc12 (stereo not shown)

>  <result>
≥ 1000 nM

$$$$
>  <compound>
CC(=O)C1=C(C)NC(C)=C(C(=O)OCc2cccc(N3CCOCC3)c2)C1c1csc2ncccc12 (stereo not shown)

>  <result>
100 to 1000 nM

$$$$
>  <compound>
N#CC1=C(N)NC(C2CC2)=C(C(=O)OCC2CC2)C1c1csc2c(C#N)cccc12 (stereo not shown)

>  <result>
100 to 1000 nM

$$$$
>  <compound>
CC(=O)C1=C(C)NC(C2CC2)=C(C(=O)OCc2ccncc2)C1c1csc2c(Br)cccc12 (stereo not shown)

>  <result>
< 100 nM

$$$$
